- procedure.text: Cytotoxicity against African green monkey Vero cells assessed as cell viability measured after 24 hrs incubation by MTT assay
- Format: toxicity, cell-based
- test.settings: chlorocebus sabaeus
measurement.name: CC50 at 24 h (µM)
Number in µM, nothing else.

Below: 3 compounds and their reported CC50 at 24 h.
CC1(C)C(=O)C2=C(Oc3cc(O)cc(O)c3C2c2ccccc2)C(C)(C)C1=O (centres undefined)	18
CC(C)CC(=O)c1c(O)cc2c(c1O)[C@H](CC(C)C)C1=C(O2)C(C)(C)[C@@H](O)C(C)(C)C1=O	7.5
CC(=O)c1c(O)cc2c(c1O)C(CC(C)C)C1=C(O2)C(C)(C)C(=O)C(C)(C)C1=O (centres undefined)	12.5

For CC(C)CC1C2=C(Oc3cc(O)c(C(=O)C(C)C)c(O)c31)C(C)(C)C(=O)C(C)(C)C2=O (centres undefined) , what is its reported CC50 at 24 h?
7

Entry CC(C)CC(=O)c1c(O)cc2c(c1O)[C@@H](CC(C)C)C1=C(O2)C(C)(C)[C@@H](O)C(C)(C)C1=O : reported CC50 at 24 h = ?
10

----------
- procedure.text: Cytotoxicity against African green monkey Vero cells assessed as cell viability measured after 24 hrs incubation by MTT assay
- Assay type: toxicity, cell-based
- test.settings: chlorocebus sabaeus
# if measured CC50 at 24 h < 8 µM: met  # else: not met

As a guide, the following entries are already answered.
CC(C)CC1C2=C(Oc3cc(O)c(C(=O)Cc4ccc(F)cc4)c(O)c31)C(C)(C)C(=O)C(C)(C)C2=O (stereo unspecified)	met
CC(C)CC(=O)c1c(O)c(Br)c2c(c1O)C(CC(C)C)C1=C(O2)C(C)(C)C(=O)C(C)(C)C1=O (stereo unspecified)	met
CCCC1C2=C(Oc3cc(O)c(C(=O)CC(C)C)c(O)c31)C(C)(C)C(=O)C(C)(C)C2=O (stereo unspecified)	not met
CC(C)CC1C2=C(Oc3c(C(=O)C4CCC4)c(O)cc(O)c31)C(C)(C)C(=O)C(C)(C)C2=O (stereo unspecified)	not met
CC(C)CC(=O)c1c(O)c(Cl)c2c(c1O)C(CC(C)C)C1=C(O2)C(C)(C)C(=O)C(C)(C)C1=O (stereo unspecified)	not met
CC(C)CC1C2=C(Oc3cc(O)c(C(=O)Cc4ccccc4)c(O)c31)C(C)(C)C(=O)C(C)(C)C2=O (stereo unspecified)	not met
CC(C)CC(=O)c1c(O)cc2c(c1O)C(C1CCC1)C1=C(O2)C(C)(C)C(=O)C(C)(C)C1=O (stereo unspecified)	met
CC(C)CC(=O)c1c(O)cc(O)c2c1OC1=C(C(=O)C(C)(C)C(=O)C1(C)C)C2c1ccccc1 (racemic)	not met
CC(C)CC(=O)c1c(O)cc2c(c1O)C(C(C)C)C1=C(O2)C(C)(C)C(=O)C(C)(C)C1=O (stereo unspecified)	not met
CC(C)CC(=O)c1c(O)cc2c(c1O)C(c1ccccc1)C1=C(O2)C(C)(C)C(=O)C(C)(C)C1=O (stereo unspecified)	not met

Strictly below 8 µM in CC50 at 24 h? CC(C)CC(=O)c1c(O)c(C=O)c2c(c1O)C(CC(C)C)C1=C(O2)C(C)(C)C(=O)C(C)(C)C1=O (stereo unspecified)
not met

Could you please tell me whether CC50 at 24 h recorded for CC(C)CC(=O)c1c(O)cc(O)c2c1OC1=C(C(=O)C(C)(C)C(=O)C1(C)C)C2CC(C)C (racemic) is less than 8 µM?
not met

Please let me know if CCC1C2=C(Oc3cc(O)c(C(=O)CC(C)C)c(O)c31)C(C)(C)C(=O)C(C)(C)C2=O (stereo unspecified) shows CC50 at 24 h below 8 µM.
met

Find out if reported CC50 at 24 h for CC(C)CC(=O)c1c(O)cc2c(c1O)[C@H](CC(C)C)C1=C(C[C@H](C)CC1=O)O2 is less than 8 µM
not met

Determine whether this compound shows CC50 at 24 h lower than 8 µM (ties excluded): CC(C)C1C2=C(Oc3cc(O)cc(O)c31)C(C)(C)C(=O)C(C)(C)C2=O (stereo unspecified)
not met

API: query returns whether the compound falls strictly under 8 µM in CC50 at 24 h. Query: CC(C)CC(=O)c1c(O)cc2c(c1O)[C@H](CC(C)C)C1=C(O2)C(C)(C)C(=O)C(C)(C)C1=O
met

Please let me know if CC(C)CC(=O)c1c(OS(=O)(=O)C(F)(F)F)cc2c(c1O)C(CC(C)C)C1=C(O2)C(C)(C)C(=O)C(C)(C)C1=O (stereo unspecified) shows CC50 at 24 h below 8 µM.
not met

Would you kindly verify if CC50 at 24 h of CC(C)CC(=O)c1c(O)cc2c(c1O)C(C1CCCCC1)C1=C(O2)C(C)(C)C(=O)C(C)(C)C1=O (stereo unspecified) is strictly less than 8 µM?
not met

Is the reported CC50 at 24 h for CC(C)CC(=O)c1c(O)cc(O)c2c1OC1=C(C(=O)C(C)(C)C(=O)C1(C)C)C2C(C)C (racemic) strictly below 8 µM?
not met

Here's an entry: CC(C)CC1C2=C(Oc3cc(O)c(C=O)c(O)c31)C(C)(C)C(=O)C(C)(C)C2=O (stereo unspecified) . Is its CC50 at 24 h below 8 µM?
not met

I wonder whether CC(C)CC1C2=C(Oc3cc(O)c(C(=O)CCc4ccccc4)c(O)c31)C(C)(C)C(=O)C(C)(C)C2=O (stereo unspecified) has CC50 at 24 h below 8 µM. Can you tell?
met

Please let me know if CC(C)CC(=O)c1c(O)cc2c(c1O)C(CC(C)C)C1=C(O2)C(C)(C)C(=O)C(C)(C)C1=O (racemic) shows CC50 at 24 h below 8 µM.
met

Please check: CC50 at 24 h for CC(C)CC1C2=C(Oc3cc(O)c(C(=O)C4CCCC4)c(O)c31)C(C)(C)C(=O)C(C)(C)C2=O (stereo unspecified) , strictly under 8 µM or not?
not met

Would you kindly verify if CC50 at 24 h of CC(C)C(=O)c1c(O)cc2c(c1O)C(C(C)C)C1=C(O2)C(C)(C)C(=O)C(C)(C)C1=O (racemic) is strictly less than 8 µM?
not met
